Task for the reader: assign each of the following compounds its reported inhibition zone (IZ).
system: Candida albicans; assay: Antifungal activity against Candida albicans after 3 to 4 days by serial dilution method; type: functional

Observe how each entry below is paired with its result.
chemical_structure=O=c1cc(COc2cccc(OCc3cc(=O)oc4c3ccc3ccccc34)c2)c2ccc3ccccc3c2o1 readout_label="inhibition zone (IZ)" reported="13 mm"
chemical_structure=CCN(CC)c1cccc(OCc2cc(=O)oc3ccc4ccccc4c23)c1 readout_label="inhibition zone (IZ)" reported="13 mm"
chemical_structure=O=c1cc(COc2cccc(OCc3cc(=O)oc4ccc(Br)cc34)c2)c2cc(Br)ccc2o1 readout_label="inhibition zone (IZ)" reported="17 mm"

Please look at the items below and tell me inhibition zone (IZ) for each one, in order.
1. COc1ccc2oc(=O)cc(COc3cccc(OCc4cc(=O)oc5ccc(OC)cc45)c3)c2c1
2. O=c1cc(COc2cccc(O)c2)c2ccc3ccccc3c2o1
3. CCN(CC)c1cccc(OCc2cc(=O)oc3ccc(Cl)cc23)c1
4. CCN(CC)c1cccc(OCc2cc(=O)oc3c2ccc2ccccc23)c1
5. OC(Cn1cncn1)(Cn1cncn1)c1ccc(F)cc1F
6. O=c1cc(COc2cccc(OCc3cc(=O)oc4ccc5ccccc5c34)c2)c2c(ccc3ccccc32)o1
7. Cc1ccc2c(COc3cccc(O)c3)cc(=O)oc2c1

["17 mm", "13 mm", "18 mm", "14 mm", "20 mm", "13 mm", "9 mm"]

* * *

system: Candida albicans; test: Antifungal activity against Candida albicans after 3 to 4 days by serial dilution method; format: functional
Response key: TRUE means inhibition zone (IZ) >= 10 mm; FALSE means inhibition zone (IZ) < 10 mm.

Recorded results for 3 compounds are shown here.
chemical_structure=CC(=O)Nc1cccc(OCc2cc(=O)oc3cc(C)ccc23)c1 label=FALSE
chemical_structure=CC(=O)Nc1cccc(OCc2cc(=O)oc3ccc(C)cc23)c1 label=FALSE
chemical_structure=Cc1ccc2oc(=O)cc(COc3cccc(OCc4cc(=O)oc5ccc(C)cc45)c3)c2c1 label=FALSE

Answer whether inhibition zone (IZ) of O=c1cc(COc2cccc(O)c2)c2cc(Cl)ccc2o1 is greater than or equal to 10 mm.
TRUE

Does the compound CC(=O)Nc1cccc(OCc2cc(=O)oc3ccc(Cl)cc23)c1 have recorded inhibition zone (IZ) that is 10 mm or more?
TRUE

Hi, just wondering whether O=c1cc(COc2cccc(O)c2)c2cc(Br)ccc2o1 shows inhibition zone (IZ) of 10 mm or higher.
TRUE

API: above_or_equal(metric=inhibition zone (IZ), cutoff=10 mm) for item CC(=O)Nc1cccc(OCc2cc(=O)oc3ccc(Br)cc23)c1
TRUE

# check: inhibition zone (IZ) of CC(=O)Nc1cccc(OCc2cc(=O)oc3c2ccc2ccccc23)c1 is greater than or equal to 10 mm
TRUE

// inclusive: inhibition zone (IZ) at least 10 mm? input: COc1ccc2oc(=O)cc(COc3cccc(O)c3)c2c1
TRUE

Does the compound O=c1cc(COc2cccc(O)c2)c2c(ccc3ccccc32)o1 have recorded inhibition zone (IZ) that is 10 mm or more?
TRUE

Is inhibition zone (IZ) at least 10 mm? Consider O=c1cc(COc2cccc(OCc3cc(=O)oc4ccc(Cl)cc34)c2)c2cc(Cl)ccc2o1
TRUE

* * *

test system: Staphylococcus aureus; assay: Induction of Staphylococcus aureus MTCC 3160 DNA cleavage at 50 ug after 2 hr by agarose gel electrophoresis
The source made the active and inactive calls. No cut-off for these calls is given here.
Return exactly one item of 1 for active, 0 for inactive

chemical_structure=CCN(CC)c1cccc(OCc2cc(=O)oc3ccc(C)cc23)c1 label=0
chemical_structure=Cc1ccc2c(COc3cccc(OCc4cc(=O)oc5cc(C)ccc45)c3)cc(=O)oc2c1 label=0
chemical_structure=O=c1cc(COc2cccc(O)c2)c2c(ccc3ccccc32)o1 label=0
chemical_structure=CCN(CC)c1cccc(OCc2cc(=O)oc3ccc(OC)cc23)c1 label=1
chemical_structure=Cc1ccc2c(COc3cccc(O)c3)cc(=O)oc2c1 label=0

What is the recorded call for this compound in the test? COc1ccc2oc(=O)cc(COc3cccc(NC(C)=O)c3)c2c1
1

* * *

I'd be grateful if you could share measured MIC for these entries.
system: Bacillus subtilis; assay: Antibacterial activity against Bacillus subtilis MTCC 297 after 24 hr by disk diffusion method; assay type: functional; details: Bacillus subtilis, MTCC 297, 24 h
# output: number + unit

Recorded MIC, per entry:
chemical_structure=COc1ccc2oc(=O)cc(COc3cccc(OCc4cc(=O)oc5ccc(OC)cc45)c3)c2c1 readout_label=MIC reported="6.25 µg/mL"
chemical_structure=CCN(CC)c1cccc(OCc2cc(=O)oc3c2ccc2ccccc23)c1 readout_label=MIC reported="25 µg/mL"
chemical_structure=Cc1ccc2oc(=O)cc(COc3cccc(OCc4cc(=O)oc5ccc(C)cc45)c3)c2c1 readout_label=MIC reported="12.5 µg/mL"
chemical_structure=CC(=O)Nc1cccc(OCc2cc(=O)oc3ccc(Br)cc23)c1 readout_label=MIC reported="6.25 µg/mL"
chemical_structure=CC(=O)Nc1cccc(OCc2cc(=O)oc3c2ccc2ccccc23)c1 readout_label=MIC reported="12.5 µg/mL"
chemical_structure=O=c1cc(COc2cccc(O)c2)c2c(ccc3ccccc32)o1 readout_label=MIC reported="25 µg/mL"
chemical_structure=Cc1ccc2c(COc3cccc(OCc4cc(=O)oc5cc(C)ccc45)c3)cc(=O)oc2c1 readout_label=MIC reported="12.5 µg/mL"
chemical_structure=O=c1cc(COc2cccc(OCc3cc(=O)oc4ccc(Cl)cc34)c2)c2cc(Cl)ccc2o1 readout_label=MIC reported="6.25 µg/mL"

Answer for every listed entry: what is its MIC? The entries follow.
1. CC(=O)Nc1cccc(OCc2cc(=O)oc3ccc(C)cc23)c1
2. CCN(CC)c1cccc(OCc2cc(=O)oc3ccc(Cl)cc23)c1

12.5 µg/mL
6.25 µg/mL

* * *

system: Aspergillus fumigatus; test: Antifungal activity against Aspergillus fumigatus after 3 to 4 days by serial dilution method; format: functional; settings: Aspergillus fumigatus
readout.label: MIC (µg/mL)
Answers are plain numbers, in µg/mL.

Solved cases (5 shown):
chemical_structure=O=c1cc(COc2cccc(OCc3cc(=O)oc4c3ccc3ccccc34)c2)c2ccc3ccccc3c2o1 assayed_system="Aspergillus fumigatus" readout_label=MIC unit_of_measure=µg/mL reported=12.5
chemical_structure=OC(Cn1cncn1)(Cn1cncn1)c1ccc(F)cc1F assayed_system="Aspergillus fumigatus" readout_label=MIC unit_of_measure=µg/mL reported=6.25
chemical_structure=O=c1cc(COc2cccc(OCc3cc(=O)oc4ccc(Br)cc34)c2)c2cc(Br)ccc2o1 assayed_system="Aspergillus fumigatus" readout_label=MIC unit_of_measure=µg/mL reported=12.5
chemical_structure=Cc1ccc2c(COc3cccc(OCc4cc(=O)oc5cc(C)ccc45)c3)cc(=O)oc2c1 assayed_system="Aspergillus fumigatus" readout_label=MIC unit_of_measure=µg/mL reported=12.5
chemical_structure=O=c1cc(COc2cccc(OCc3cc(=O)oc4ccc(Cl)cc34)c2)c2cc(Cl)ccc2o1 assayed_system="Aspergillus fumigatus" readout_label=MIC unit_of_measure=µg/mL reported=6.25

Field: next molecule
Dear colleague, I am looking for the recorded MIC of the following molecule: COc1ccc2oc(=O)cc(COc3cccc(O)c3)c2c1
12.5

* * *

test system: Fusarium oxysporum; experiment: Antifungal activity against Fusarium oxysporum after 3 to 4 days by serial dilution method; format: functional
readout.label: inhibition zone (IZ) (mm)
Give bare numbers, in mm.

chemical_structure=CCN(CC)c1cccc(OCc2cc(=O)oc3ccc4ccccc4c23)c1 reported=14
chemical_structure=CCN(CC)c1cccc(OCc2cc(=O)oc3ccc(OC)cc23)c1 reported=15
chemical_structure=O=c1cc(COc2cccc(OCc3cc(=O)oc4c3ccc3ccccc34)c2)c2ccc3ccccc3c2o1 reported=14
chemical_structure=O=c1cc(COc2cccc(OCc3cc(=O)oc4ccc(Cl)cc34)c2)c2cc(Cl)ccc2o1 reported=16
chemical_structure=O=c1cc(COc2cccc(O)c2)c2ccc3ccccc3c2o1 reported=12
chemical_structure=COc1ccc2oc(=O)cc(COc3cccc(NC(C)=O)c3)c2c1 reported=16

Quick batch: inhibition zone (IZ) for everything below.
1. O=c1cc(COc2cccc(O)c2)c2c(ccc3ccccc32)o1
2. CCN(CC)c1cccc(OCc2cc(=O)oc3c2ccc2ccccc23)c1
3. O=c1cc(COc2cccc(O)c2)c2cc(Cl)ccc2o1

[12, 13, 17]

Count: 7. Required value per item: inhibition zone (IZ).
1. Cc1ccc2c(COc3cccc(O)c3)cc(=O)oc2c1
2. O=c1cc(COc2cccc(O)c2)c2cc(Br)ccc2o1
3. CC(=O)Nc1cccc(OCc2cc(=O)oc3ccc(Cl)cc23)c1
4. CCN(CC)c1cccc(OCc2cc(=O)oc3ccc(Cl)cc23)c1
5. Cc1ccc2oc(=O)cc(COc3cccc(O)c3)c2c1
6. COc1ccc2oc(=O)cc(COc3cccc(O)c3)c2c1
7. CC(=O)Nc1cccc(OCc2cc(=O)oc3cc(C)ccc23)c1

1. 9
2. 13
3. 16
4. 16
5. 8
6. 16
7. 9

Parameter requested: inhibition zone (IZ). Apply to each item below.
1. CC(=O)Nc1cccc(OCc2cc(=O)oc3ccc(Br)cc23)c1
2. O=c1cc(COc2cccc(OCc3cc(=O)oc4ccc5ccccc5c34)c2)c2c(ccc3ccccc32)o1
3. COc1ccc2oc(=O)cc(COc3cccc(OCc4cc(=O)oc5ccc(OC)cc45)c3)c2c1
4. CCN(CC)c1cccc(OCc2cc(=O)oc3ccc(Br)cc23)c1

[13, 13, 15, 14]

# map each compound to its inhibition zone (IZ)
1. CCN(CC)c1cccc(OCc2cc(=O)oc3ccc(C)cc23)c1
2. CCN(CC)c1cccc(OCc2cc(=O)oc3cc(C)ccc23)c1
3. CC(=O)Nc1cccc(OCc2cc(=O)oc3ccc(C)cc23)c1

9
7
10

Source listed as ChEMBL document CHEMBL3046568.
